SYSTEM_TESTED: Kv11.1 (hERG) (Homo sapiens (Human), UniProt Q12809)
Sequence (Q12809 whole entry): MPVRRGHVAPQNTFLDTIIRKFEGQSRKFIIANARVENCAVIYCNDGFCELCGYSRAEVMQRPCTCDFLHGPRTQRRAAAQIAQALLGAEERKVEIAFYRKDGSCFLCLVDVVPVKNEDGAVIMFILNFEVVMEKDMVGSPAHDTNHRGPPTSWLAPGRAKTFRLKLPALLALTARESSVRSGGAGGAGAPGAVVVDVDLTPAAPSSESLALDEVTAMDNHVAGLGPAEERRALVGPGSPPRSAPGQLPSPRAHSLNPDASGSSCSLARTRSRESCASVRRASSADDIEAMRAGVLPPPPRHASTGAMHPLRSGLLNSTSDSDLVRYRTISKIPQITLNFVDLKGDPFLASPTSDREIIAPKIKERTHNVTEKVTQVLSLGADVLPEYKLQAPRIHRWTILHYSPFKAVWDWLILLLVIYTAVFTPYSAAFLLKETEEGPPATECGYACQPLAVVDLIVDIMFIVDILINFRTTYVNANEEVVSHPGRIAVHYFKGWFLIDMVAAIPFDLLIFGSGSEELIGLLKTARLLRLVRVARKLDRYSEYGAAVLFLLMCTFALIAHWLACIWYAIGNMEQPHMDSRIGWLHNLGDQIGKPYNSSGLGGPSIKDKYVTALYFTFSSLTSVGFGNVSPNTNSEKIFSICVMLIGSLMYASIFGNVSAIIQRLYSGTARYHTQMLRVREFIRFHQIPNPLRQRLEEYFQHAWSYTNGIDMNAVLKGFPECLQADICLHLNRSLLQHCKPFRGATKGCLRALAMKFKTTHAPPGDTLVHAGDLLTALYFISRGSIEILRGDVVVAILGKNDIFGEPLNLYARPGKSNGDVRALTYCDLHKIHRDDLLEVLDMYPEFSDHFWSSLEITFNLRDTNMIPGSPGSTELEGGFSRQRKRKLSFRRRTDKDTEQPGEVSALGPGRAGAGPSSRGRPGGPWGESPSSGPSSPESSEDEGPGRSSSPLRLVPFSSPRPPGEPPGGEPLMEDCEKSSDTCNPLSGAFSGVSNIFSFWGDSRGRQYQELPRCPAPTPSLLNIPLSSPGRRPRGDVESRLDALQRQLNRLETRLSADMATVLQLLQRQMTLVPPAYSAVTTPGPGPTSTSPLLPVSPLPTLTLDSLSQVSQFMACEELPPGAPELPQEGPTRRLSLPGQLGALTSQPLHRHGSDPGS
PROCEDURE_DETAILS: Kv11.1 (hERG) ion channel activity (patch clamp assay), HEK293 cells transfected with hERG gene
MEASUREMENT_SETUP: read-out: Ki [Kv1.11 hERG]; hERG patch clamp assay (cells without asterisk)
MEASUREMENT_NAME: Ki

                                   compound                             system_tested  experimental_result
0  Cc1cncnc1C(O)c1cc(-c2ncnc3cc(N4CCOCC4)ccc23)ccc1Cl (stereo not shown) [Example 419]  Kv11.1 (hERG) (Homo sapiens (Human), UniProt Q12809)          15 to 25 µM

Task: Please indicate Ki recorded for Oc1ncnc(C(O)c2cc(-c3ncnc4cc(N5CCOCC5)ccc34)ccc2Cl)c1Cl (stereo not shown)
Result: > 25 µM

Task: Please give the documented Ki of Cn1nc(C(O)c2ccc(F)c(-c3ncnc4cc(N5CCOCC5)ccc34)c2)ccc1=O (stereo not shown)
Result: > 25 µM

Task: Retrieve Ki measured for NC(=O)C(c1cccnc1)c1cc(-c2ncnc3cc(N4CCOCC4)ccc23)c(F)cc1Cl (stereo not shown) and print it.
Result: > 25 µM

---

SYSTEM_TESTED: UniProt:Q12809
PROCEDURE_DETAILS: Kv11.1 (hERG) ion channel activity (patch clamp assay), HEK293 cells transfected with hERG gene
MEASUREMENT_SETUP: Ki [Kv1.11 hERG], hERG patch clamp assay (cells without asterisk)
MEASUREMENT_NAME: Ki

Solved entries (count: 10):
COMPOUND	MEASUREMENT_NAME	EXPERIMENTAL_RESULT
Cn1ncc2c(C(O)c3cc(-c4ncnc5cc(N6CCOCC6)ccc45)ccc3F)ncnc21 (stereo not shown) [Example 391]	Ki	15 to 25 µM
COc1cnc(C(O)c2ccc(F)c(-c3ncnc4cc(N5CCOCC5)ccc34)c2)c(Br)c1 (stereo not shown) [Example 473]	Ki	15 to 25 µM
CCOc1cccnc1C(O)c1ccc(F)c(-c2ncnc3cc(N4CCOCC4)ccc23)c1 (stereo not shown) [Example 463]	Ki	15 to 25 µM
[2H]C1([2H])OC([2H])([2H])C([2H])([2H])N(c2ccc3c(-c4cc(C(O)c5nccnc5OC)c(Cl)cc4F)ncnc3c2)C1([2H])[2H] (stereo not shown) [Example 241]	Ki	10 to 15 µM
Cn1ncc2c(C(O)c3cc(-c4ncnc5cc(N6CCOCC6)ccc45)c(F)cc3Cl)ncnc21 (stereo not shown) [Example 402]	Ki	15 to 25 µM
Cc1cncnc1C(C(N)=O)c1cc(-c2ncnc3cc(N4CCOCC4)ccc23)ccc1Cl (stereo not shown) [Example 377]	Ki	15 to 25 µM
Cc1cncnc1C(O)c1cc(-c2ncnc3cc(N4CCOCC4)ccc23)ccc1F (stereo not shown) [Example 392]	Ki	15 to 25 µM
OC(c1cc(-c2ncnc3cc(N4CCOCC4)ccc23)c(F)cc1Cl)c1ncnc2ccoc12 (stereo not shown) [Example 452]	Ki	10 to 15 µM
COc1nccnc1C(O)c1cc(-c2ncnc3cc(N4CCOCC4)ccc23)c(F)cc1F (stereo not shown) [Example 453]	Ki	10 to 15 µM
OC(c1cc(-c2ncnc3cc(N4CCOCC4)ccc23)c(F)cc1Cl)c1ncnc2ccoc12 (stereo not shown) [Example 440]	Ki	15 to 25 µM

Task: Return value of Ki for input OC(c1cc(-c2ncnc3cc(N4CCOCC4)ccc23)c(F)cc1F)c1nccn2cccc12 (stereo not shown) [Example 358] , no commentary.
Result: 10 to 15 µM

Task: Answer with the recorded Ki of NC(=O)C(c1cncc(Cl)c1)c1ccc(F)c(-c2ncnc3cc(N4CCOCC4)ccc23)c1 (stereo not shown) [Example 297] only.
Result: 10 to 15 µM

Task: # return recorded Ki for entry OC(c1cc(-c2ncnc3cc(N4CCOCC4)ccc23)ccc1F)c1cccc2nncn12 (stereo not shown) [Example 373]
Result: 15 to 25 µM

Task: Report Ki, nothing else, for this compound: OC(c1ccc(F)c(-c2ncnc3cc(N4CCOCC4)ccc23)c1)c1ncnc2c1CCNC2 (stereo not shown) [Example 388]
Result: 10 to 15 µM

Task: Give the value of Ki reported for the following: NC(=O)C(c1ccc2nccn2n1)c1cc(-c2ncnc3cc(N4CCOCC4)ccc23)c(F)cc1Cl (stereo not shown) [Example 323]
Result: 15 to 25 µM

Task: Give me measured Ki, please, for this compound: COc1nccnc1[C@H](O)c1cc(-c2ncnc3cc(N4CCOCC4)ccc23)c(F)cc1Cl [Example 455]
Result: 15 to 25 µM

---

SYSTEM_TESTED: DNA-PK phosphorylation at serine 2056 (Homo sapiens (Human))
PROCEDURE_DETAILS: DNA-PK phosphorylation at serine 2056 (cellular), bleomycin-treated HCT116 cells, ELISA
Assay type: cell-based
MEASUREMENT_SETUP: cellular; HCT116 cells, 10 μM bleomycin, six hours; read-out: IC50 pDNA-PK
Description: HCT116 cells were cultivated at 37° C. and 10% CO2 in MEM alpha medium with 10% of foetal calf serum and 2 mM glutamine. The cells were detached from the base of the culture vessels with the aid of trypsin/EDTA, centrifuged off in centrifuge tubes, taken up in fresh medium, and the cell density was determined. […] The development of the enzymatic reaction was carried out with the aid of a chemiluminescent reagent, the chemiluminescence was measured with the aid of a Mithras LB940. […]
MEASUREMENT_NAME: IC50

These solved cases illustrate the format of a correct answer.
>>> print(df.to_string())
                                   compound  experimental_result
0  NC(=O)c1ccc(C(O)c2cc(-c3ncnc4cc(N5CCOCC5)ccc34)c(F)cc2Cl)nn1 (centres unmarked) [Example 62]          0.5 to 5 µM
1  COc1cnc(C(O)c2ccc(F)c(-c3ncnc4cc(N5CCOCC5)ccc34)c2)cn1 (centres unmarked) [Example 53]           5 to 10 µM
2  CCn1nc(C(O)c2cc(-c3ncnc4cc(N5CCOCC5)ccc34)c(F)cc2Cl)ccc1=O (centres unmarked) [Example 97]          0.5 to 5 µM
3  OC(c1ccc(F)c(-c2ncnc3cc(N4CCOCC4)ccc23)c1)c1cnccn1 (centres unmarked) [Example 33]          10 to 30 µM
4  COc1ccc(C(O)c2cc(-c3nc(Cl)nc4cc(N5CCOCC5)ccc34)c(F)cc2Cl)nn1 (centres unmarked) [Example 132]          0.5 to 5 µM

Task: Answer with reported IC50 of COc1cnc(C(O)c2ccc(F)c(-c3ncnc4cc(N5CCOCC5)ccc34)c2)cn1 (centres unmarked) [Example 52]
Result: 5 to 10 µM

Task: Entry Cc1cnnc(C(O)c2cc(-c3ncnc4cc(N5CCOCC5)ccc34)c(F)cc2Cl)c1 (centres unmarked) [Example 46] needs its IC50 filled in; supply it.
Result: 5 to 10 µM

Task: Find the measured IC50 of Nc1nccnc1C(O)c1cc(-c2ncnc3cc(N4CCOCC4)ccc23)c(F)cc1Cl (centres unmarked) [Example 117] and report it.
Result: 0.5 to 5 µM

Task: # return recorded IC50 for input OC(c1ccc(F)c(-c2ncnc3cc(N4CCOCC4)ccc23)c1)c1nccs1 (centres unmarked) [Example 211]
Result: 0.5 to 5 µM

Task: Please indicate IC50 recorded for OC(c1ccc(F)c(-c2ncnc3cc(N4CCOCC4)ccc23)c1)c1nccs1 (centres unmarked) [Example 213]
Result: 5 to 10 µM

Task: Entry OC(c1cccnn1)c1cc(-c2ncnc3cc(N4CCOCC4)ccc23)c(F)cc1F (centres unmarked) [Example 48] needs its IC50 filled in; supply it.
Result: 0.5 to 5 µM

Task: // Input: OC(c1cc(-c2ncnc3cc(N4CCOCC4)ccc23)ccc1Cl)c1ncnc2ccsc12 (centres unmarked) [Example 89] . Output its IC50 only.
Result: < 0.5 µM

Task: Output IC50 of OC(c1ccc2nccn2n1)c1cc(-c2ncnc3cc(N4CCOCC4)ccc23)c(F)cc1Cl (centres unmarked) [Example 57]
Result: < 0.5 µM

---

SYSTEM_TESTED: Kv11.1 (hERG) (Homo sapiens (Human), UniProt Q12809)
MEASUREMENT_NAME: Ki

Task: Output reported Ki of the molecule O=c1ccc(C(O)c2ccc(F)c(-c3ncnc4cc(N5C6CCC5COC6)ccc34)c2)n[nH]1 (stereo not shown) on Kv11.1 (hERG) (Homo sapiens (Human), UniProt Q12809).
Result: > 25 µM

---

SYSTEM_TESTED: UniProt:P78527
PROCEDURE_DETAILS: DNA-PK assay (biochemical), flashplate 33P-ATP kinase assay
MEASUREMENT_SETUP: biochemical DNA-PK assay
MEASUREMENT_NAME: IC50

# annotated cases, reported IC50 shown
MOLECULE	SYSTEM_TESTED	IC50
COc1ccc(C(O)c2cc(-c3ncnc4cc(N5CCOCC5)ccc34)ccc2F)nn1 (stereo not drawn) [Example 357]	UniProt:P78527	3 to 7 nM
Cn1cnc2c(C(O)c3ccc(F)c(-c4ncnc5cc(N6CCOCC6)ccc45)c3)ncnc21 (stereo not drawn) [Example 420]	UniProt:P78527	7 to 30 nM
OC(c1cc(-c2ncnc3cc(N4CCOCC4)ccc23)ccc1F)c1nccn2ccnc12 (stereo not drawn) [Example 372]	UniProt:P78527	7 to 30 nM
CNC(=O)C(c1cc(-c2ncnc3cc(N4CCOCC4)ccc23)c(F)cc1Cl)c1nccnc1C (stereo not drawn) [Example 254]	UniProt:P78527	7 to 30 nM
CCn1c(C(O)c2ccc(F)c(-c3ncnc4cc(N5CCOCC5)ccc34)c2)cccc1=O (stereo not drawn) [Example 398]	UniProt:P78527	3 to 7 nM
COc1ccc(C(O)c2cc(-c3ncnc4cc(N5CCOCC5)cc(F)c34)c(F)cc2Cl)nn1 (single isomer, unassigned) [Example 271]	UniProt:P78527	< 3 nM
Cn1cnc2c(C(O)c3cc(-c4ncnc5cc(N6CCOCC6)ccc45)c(F)cc3F)ncnc21 (stereo not drawn) [Example 347]	UniProt:P78527	3 to 7 nM
COc1ccc(C(O)c2cc(-c3ncnc4cc(N5CCOCC5)cc(F)c34)c(F)cc2Cl)nn1 (stereo not drawn) [Example 278]	UniProt:P78527	< 3 nM
OC(c1cc(-c2ncnc3cc(N4CCOCC4)ccc23)c(F)cc1Cl)c1ncnc2ccoc12 (stereo not drawn) [Example 452]	UniProt:P78527	< 3 nM
COc1ccc(C(O)c2ccc(F)c(-c3ncnc4cc(N5CCOCC5)cc(F)c34)c2)nn1 (stereo not drawn) [Example 260]	UniProt:P78527	< 3 nM

Task: Query IC50 for [2H]C1([2H])OC([2H])([2H])C([2H])([2H])N(c2ccc3c(-c4cc(C(O)c5nccnc5OC)c(Cl)cc4F)ncnc3c2)C1([2H])[2H] (stereo not drawn) [Example 242]
Result: < 3 nM

Task: Retrieve IC50 measured for Cc1nccnc1C(C(N)=O)c1cc(-c2ncnc3cc(N4CCOCC4)ccc23)c(F)cc1Cl (stereo not drawn) [Example 324] and print it.
Result: 3 to 7 nM

Task: Assign IC50 to the following record: Cn1cnc2ncnc([C@H](O)c3cc(-c4ncnc5cc(N6CCOCC6)ccc45)c(F)cc3F)c21 [Example 384]
Result: 7 to 30 nM

Task: Return reported IC50. Input molecule: [2H]C1([2H])OC([2H])([2H])C([2H])([2H])N(c2ccc3c(-c4cc(C(O)c5nccnc5C)ccc4F)ncnc3c2)C1([2H])[2H] (stereo not drawn) [Example 259]
Result: < 3 nM

Task: Entry OC(c1cc(-c2ncnc3cc(N4CCOCC4)ccc23)c(F)cc1F)c1nccnc1OC(F)F (stereo not drawn) [Example 449] needs its IC50 filled in; supply it.
Result: < 3 nM
